# assay_details: Ratio of TC50 for compound to FTY720 for HLF cells
# Assay type: ADME, cell-based
# condition_label: human
Reported selectivity ratio values are given for each entry in this list.
Lab note: jot the number down without any unit.

Kindly note the recorded selectivity ratio for NC(=O)C1(CCc2ccc(OCc3ccc(Cl)cc3)cc2)COC(=O)N1 (stereo not drawn) , which is 8

Documented selectivity ratio of CC(C)(C)c1ccc(COc2ccc(CCC3(C(N)=O)COC(=O)N3)cc2)cc1 (stereo not drawn) : 8

Memo: NC(=O)C1(CCc2ccc(OCCCc3ccccc3)cc2)COC(=O)N1 (stereo not drawn) , reported selectivity ratio: 8
